Molecular target: T1, human GM-CSFRα, full length on cells (human, UniProt P15509 23-400)
T1 sequence: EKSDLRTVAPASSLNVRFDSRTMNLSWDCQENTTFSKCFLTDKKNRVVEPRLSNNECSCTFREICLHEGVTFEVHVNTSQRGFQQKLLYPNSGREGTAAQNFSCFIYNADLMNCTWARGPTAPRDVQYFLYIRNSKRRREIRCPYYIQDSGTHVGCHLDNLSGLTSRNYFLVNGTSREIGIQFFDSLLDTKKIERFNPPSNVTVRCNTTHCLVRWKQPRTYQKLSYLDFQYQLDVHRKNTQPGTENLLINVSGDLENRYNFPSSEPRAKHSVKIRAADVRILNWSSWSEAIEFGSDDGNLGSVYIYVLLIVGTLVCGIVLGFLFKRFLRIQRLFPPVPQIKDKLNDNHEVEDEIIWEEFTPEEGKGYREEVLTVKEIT
Test: cell-based or functional assay
The reader will find reported IC50, TF-1 cell proliferation values listed item by item below.
// return numeric value only (unit: µg/mL, not printed)

Examples with answers:
Binder | IC50, TF-1 cell proliferation, µg/mL
E35-scFv HE31D (scFv, V domains shown) VH: QMQLVQSGAEVKKPGASVKVSCKVSGYTLTDLSIHWVRQAPGKGLEWMGGFDPEDGETIYAQKFQGRVTMTGDTSTDTAYLELSSLRSEDTALYYCATGRYTSLATTYGFDYWGQGTLVTVSS VL: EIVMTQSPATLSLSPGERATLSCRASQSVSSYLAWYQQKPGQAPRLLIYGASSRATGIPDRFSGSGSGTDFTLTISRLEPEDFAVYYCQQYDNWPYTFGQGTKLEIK | 0.13
E35-scFv LS30T (scFv, V domains shown) VH: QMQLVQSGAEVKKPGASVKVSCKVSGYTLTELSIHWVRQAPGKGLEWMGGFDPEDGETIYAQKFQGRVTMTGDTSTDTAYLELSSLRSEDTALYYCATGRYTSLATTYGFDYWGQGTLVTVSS VL: EIVMTQSPATLSLSPGERATLSCRASQSVTSYLAWYQQKPGQAPRLLIYGASSRATGIPDRFSGSGSGTDFTLTISRLEPEDFAVYYCQQYDNWPYTFGQGTKLEIK | 0.092
E35-scFv HT28W (scFv, V domains shown) VH: QMQLVQSGAEVKKPGASVKVSCKVSGYWLTELSIHWVRQAPGKGLEWMGGFDPEDGETIYAQKFQGRVTMTGDTSTDTAYLELSSLRSEDTALYYCATGRYTSLATTYGFDYWGQGTLVTVSS VL: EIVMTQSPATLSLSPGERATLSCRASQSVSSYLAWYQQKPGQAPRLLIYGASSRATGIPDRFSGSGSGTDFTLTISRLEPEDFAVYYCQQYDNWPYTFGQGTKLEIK | 0.11
E35-scFv HT28N (scFv, V domains shown) VH: QMQLVQSGAEVKKPGASVKVSCKVSGYNLTELSIHWVRQAPGKGLEWMGGFDPEDGETIYAQKFQGRVTMTGDTSTDTAYLELSSLRSEDTALYYCATGRYTSLATTYGFDYWGQGTLVTVSS VL: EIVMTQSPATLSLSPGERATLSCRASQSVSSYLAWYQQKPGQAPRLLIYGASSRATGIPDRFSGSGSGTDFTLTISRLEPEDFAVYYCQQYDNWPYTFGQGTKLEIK | 0.17

Moving on to the next binder.
Query string: Please report the recorded IC50, TF-1 cell proliferation for E35-scFv LN93I (scFv, V domains shown) VH: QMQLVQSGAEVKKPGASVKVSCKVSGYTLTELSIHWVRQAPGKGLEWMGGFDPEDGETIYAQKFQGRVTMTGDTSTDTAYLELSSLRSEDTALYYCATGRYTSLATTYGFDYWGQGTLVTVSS VL: EIVMTQSPATLSLSPGERATLSCRASQSVSSYLAWYQQKPGQAPRLLIYGASSRATGIPDRFSGSGSGTDFTLTISRLEPEDFAVYYCQQYDIWPYTFGQGTKLEIK .
Result string: 0.33
